Origin of measurements: ChEMBL document CHEMBL4346711

Would you kindly list pIC50 for each of these compounds?
measured on: Amine oxidase [flavin-containing] B (Homo sapiens, UniProt P27338)
Sequence (P27338 whole entry): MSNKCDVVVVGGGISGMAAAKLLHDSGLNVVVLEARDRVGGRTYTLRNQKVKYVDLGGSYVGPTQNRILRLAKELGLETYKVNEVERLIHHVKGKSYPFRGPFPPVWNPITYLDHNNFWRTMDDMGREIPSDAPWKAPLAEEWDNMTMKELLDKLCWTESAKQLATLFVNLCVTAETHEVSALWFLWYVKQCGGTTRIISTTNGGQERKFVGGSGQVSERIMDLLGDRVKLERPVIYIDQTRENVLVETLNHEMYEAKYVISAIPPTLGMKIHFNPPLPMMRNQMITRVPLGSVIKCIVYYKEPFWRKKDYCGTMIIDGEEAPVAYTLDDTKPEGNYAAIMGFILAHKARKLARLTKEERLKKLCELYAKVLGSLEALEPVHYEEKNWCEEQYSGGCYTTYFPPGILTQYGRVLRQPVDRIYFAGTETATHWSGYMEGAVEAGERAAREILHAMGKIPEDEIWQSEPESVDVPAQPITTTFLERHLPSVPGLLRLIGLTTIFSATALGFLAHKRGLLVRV
assay text: Inhibition of recombinant human MAO-B expressed in baculovirus infected BTI insect cells using p-tyramine as substrate preincubated for 60 mins followed by substrate addition and measured after 30 mins by horse-radish peroxidase-coupled amplex red reagent-based fluorescence spectrophotometric method
Answers are plain numbers, as −log10 of the molar value.

> print(dat)
                                       smi  recorded.number
1  Cc1cc(O)cc2oc(=O)c(C(=O)CCN3CCCCC3)cc12             3.92

State the recorded pIC50 for every item in the following list.
1. COc1ccc2cc(C(=O)CCN(C)C)c(=O)oc2c1
2. Cc1cc(O)cc2oc(=O)c(C(=O)CCN(C)C)cc12
3. COc1ccc2cc(C(=O)CCN3CCCCC3)c(=O)oc2c1
4. CCN(CC)CCC(=O)c1cc2ccc(O)cc2oc1=O
5. O=C(CCN1CCOCC1)c1cc2cc(Br)c(O)c(Br)c2oc1=O
6. COc1ccc2cc(C(=O)CCN3CCOCC3)c(=O)oc2c1

4.68
5.44
4.70
4.03
4.85
5.34

* * *

Species on record: Homo sapiens
assay text: Selectivity index, ratio of IC50 for recombinant human MAO-A expressed in baculovirus infected BTI insect cells to IC50 for recombinant human MAO-B expressed in baculovirus infected BTI insect cells
Assignment: determine reported Ratio IC50 for the given molecules.

Completed entries (count: 6):
> print(dat)
                                        smi  result
1           CN(C)CCC(=O)c1cc2ccc(O)cc2oc1=O    1.53
2        COc1ccc2cc(C(=O)CCN(C)C)c(=O)oc2c1    0.36
3      Cc1cc(O)cc2oc(=O)c(C(=O)CCN(C)C)cc12   > 100
4  O=C(CCN1CCOCC1)c1cc2cc(Br)c(O)c(Br)c2oc1=O    2.42
5     COc1ccc2cc(C(=O)CCN3CCOCC3)c(=O)oc2c1    0.53
6     COc1ccc2cc(C(=O)CCN3CCCCC3)c(=O)oc2c1    0.61

For each of the molecules below, state Ratio IC50.
1. COc1ccc2cc(C(=O)CCN3CCCC3)c(=O)oc2c1
2. Cc1cc(O)cc2oc(=O)c(C(=O)CCN3CCCC3)cc12
3. Cc1cc(O)cc2oc(=O)c(C(=O)CCN3CCOCC3)cc12
4. CCN(CC)CCC(=O)c1cc2ccc(O)cc2oc1=O

1: 2.93; 2: 3.97; 3: 2.74; 4: 0.96

Value sought for every listed molecule: Ratio IC50.
1. Cc1cc(O)cc2oc(=O)c(C(=O)CCN3CCCCC3)cc12
2. O=C(CCN1CCOCC1)c1cc2ccc(O)cc2oc1=O
3. O=C(CCN1CCN(Cc2ccccc2)CC1)c1cc2ccc(O)cc2oc1=O

1.14
0.73
2.63

* * *

Field: IC50. Provide a value for each of the compounds that follow.
measured on: Amine oxidase [flavin-containing] A (Homo sapiens, UniProt P21397)
Sequence (P21397 whole entry): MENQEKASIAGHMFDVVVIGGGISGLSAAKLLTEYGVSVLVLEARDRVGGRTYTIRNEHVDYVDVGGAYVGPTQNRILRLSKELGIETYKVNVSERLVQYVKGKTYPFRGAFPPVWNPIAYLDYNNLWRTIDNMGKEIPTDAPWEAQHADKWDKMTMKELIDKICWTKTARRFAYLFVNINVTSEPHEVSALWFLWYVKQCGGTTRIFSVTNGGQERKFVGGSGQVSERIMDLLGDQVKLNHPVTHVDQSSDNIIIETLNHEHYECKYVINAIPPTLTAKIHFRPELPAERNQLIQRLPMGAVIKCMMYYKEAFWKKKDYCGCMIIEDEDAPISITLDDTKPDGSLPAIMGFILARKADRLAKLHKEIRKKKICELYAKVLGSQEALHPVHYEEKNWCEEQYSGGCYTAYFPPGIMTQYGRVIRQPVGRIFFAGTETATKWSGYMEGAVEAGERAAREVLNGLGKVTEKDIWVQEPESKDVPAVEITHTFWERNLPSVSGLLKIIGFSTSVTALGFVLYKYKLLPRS
assay text: Inhibition of recombinant human MAO-A expressed in baculovirus infected BTI insect cells using p-tyramine as substrate preincubated for 60 mins followed by substrate addition and measured after 30 mins by horse-radish peroxidase-coupled amplex red reagent-based fluorescence spectrophotometric method
// unit must come after the numeric part

> print(dat)
                                        smi  endpoint.name   result
1        COc1ccc2cc(C(=O)CCN(C)C)c(=O)oc2c1           IC50  7.63 µM
2  O=C(CCN1CCOCC1)c1cc2cc(Br)c(O)c(Br)c2oc1=O           IC50  34.1 µM
3        O=C(CCN1CCOCC1)c1cc2ccc(O)cc2oc1=O           IC50   111 µM
4    Cc1cc(O)cc2oc(=O)c(C(=O)CCN3CCCC3)cc12           IC50   173 µM
5           CN(C)CCC(=O)c1cc2ccc(O)cc2oc1=O           IC50   110 µM

As a next step, examine the compound that follows.
Name the recorded IC50 of the item O=C(CCN1CCCC1)c1cc2cc(Br)c(O)c(Br)c2oc1=O in your answer.
155 µM

* * *

Answer each item with its documented pIC50.
measured on: Amine oxidase [flavin-containing] A (Homo sapiens)
assay text: Inhibition of recombinant human MAO-A expressed in baculovirus infected BTI insect cells using p-tyramine as substrate preincubated for 60 mins followed by substrate addition and measured after 30 mins by horse-radish peroxidase-coupled amplex red reagent-based fluorescence spectrophotometric method
Numbers only, as −log10 of the molar value.

Previously resolved entries follow.
> print(dat)
                                        smi  recorded.number
1     COc1ccc2cc(C(=O)CCN3CCOCC3)c(=O)oc2c1             5.61
2         CCN(CC)CCC(=O)c1cc2ccc(O)cc2oc1=O             4.05
3   Cc1cc(O)cc2oc(=O)c(C(=O)CCN3CCCCC3)cc12             3.87
4  O=C(CCN1CCN(Cc2ccccc2)CC1)c1cc2ccc(O)cc2oc1=O             3.97
5   Cc1cc(O)cc2oc(=O)c(C(=O)CCN3CCOCC3)cc12             4.01
6      COc1ccc2cc(C(=O)CCN3CCCC3)c(=O)oc2c1             4.27

System Amine oxidase [flavin-containing] A (Homo sapiens). Read-out pIC50. Item COc1ccc2cc(C(=O)CCN3CCCCC3)c(=O)oc2c1 . Report value.
4.91

* * *

Test system: SH-SY5Y
assay text: Neuroprotection against L-glutamic acid-induced cell death in human SH-SY5Y cells assessed as increase in cell viability preincubated for 1 hr followed by L-glutamic acid addition and measured after 24 hrs by MTT assay
Format: functional, cell-based
pEC50: −log10 of the molar value.
endpoint name: pEC50

List reported pEC50 for each of these molecules:
1. O=C(CCN1CCCC1)c1cc2ccc(O)cc2oc1=O
2. O=C(CCN1CCN(Cc2ccccc2)CC1)c1cc2ccc(O)cc2oc1=O
3. Cc1cc(O)cc2oc(=O)c(C(=O)CCN3CCCC3)cc12
4. CN(C)CCC(=O)c1cc2ccc(O)cc2oc1=O
5. CCN(CC)CCC(=O)c1cc2ccc(O)cc2oc1=O
6. COc1ccc2cc(C(=O)CCN3CCOCC3)c(=O)oc2c1

< 4.00
< 4.00
< 4.00
< 4.00
4.88
< 4.00

* * *

measured on: Amine oxidase [flavin-containing] B (Homo sapiens, UniProt P27338)
assay text: Inhibition of recombinant human MAO-B expressed in baculovirus infected BTI insect cells using p-tyramine as substrate preincubated for 60 mins followed by substrate addition and measured after 30 mins by horse-radish peroxidase-coupled amplex red reagent-based fluorescence spectrophotometric method
Threshold 70 µM: IC50 strictly smaller gives True, otherwise False.

> print(dat)
                                        smi  category.label
1  O=C(CCN1CCCC1)c1cc2cc(Br)c(O)c(Br)c2oc1=O           False
2  O=C(CCN1CCN(Cc2ccccc2)CC1)c1cc2ccc(O)cc2oc1=O            True
3   CN(C)CCC(=O)c1cc2cc(Br)c(O)c(Br)c2oc1=O           False
4        O=C(CCN1CCCCC1)c1cc2ccc(O)cc2oc1=O           False
5        O=C(CCN1CCOCC1)c1cc2ccc(O)cc2oc1=O           False

For this compound, is IC50 lower than 70 µM? Cc1cc(O)cc2oc(=O)c(C(=O)CCN3CCCC3)cc12
True

API: query returns whether the compound falls strictly under 70 µM in IC50. Query: Cc1cc(O)cc2oc(=O)c(C(=O)CCN3CCOCC3)cc12
True

I wonder whether COc1ccc2cc(C(=O)CCN3CCCC3)c(=O)oc2c1 has IC50 below 70 µM. Can you tell?
True

Quick check: IC50 of O=C(CCN1CCCC1)c1cc2ccc(O)cc2oc1=O under 70 µM?
False
